Recorded values, source PubChem BioAssay AID2060910.

Exercise: state measured viability, T/C for each of the compounds provided.
# Tested on: 242566-281-R-J2-PDC complex spheroid viability
# Protocol description: Anticancer human tumor 242566-281-R-J2-PDC patient-derived pancreatic carcinoma cell line growth inhibition [RAS]
# Applied conditions: second compound 0.3 µM; first compound 0.01 µM; hits give low values

[[record]]
compound = "Nc1ccn(C2OC(CO)C(O)C2(F)F)c(=O)n1 (centres undefined) + CCn1c(-c2cccnc2C(C)OC)c2c3cc(ccc31)N1CCOC(CC(NC(=O)C(C(C)C)N(C)C(=O)C3(F)CCN(C(=O)C#CC(C)(C)N(C)C)CC3)C(=O)N3CCCC(N3)C(=O)OCC(C)(C)C2)C1"
assayed_target = "242566-281-R-J2-PDC complex spheroid viability"
result_type = "viability, T/C"
observed_measurement = "81.8%"


State the recorded viability, T/C for every item in the following list.
1. CCN1CCN(Cc2ccc(Nc3ncc(F)c(-c4cc(F)c5nc(C)n(C(C)C)c5c4)n3)nc2)CC1 + CCn1c(-c2cccnc2C(C)OC)c2c3cc(ccc31)N1CCOC(CC(NC(=O)C(C(C)C)N(C)C(=O)C3(F)CCN(C(=O)C#CC(C)(C)N(C)C)CC3)C(=O)N3CCCC(N3)C(=O)OCC(C)(C)C2)C1
2. C=CC(=O)Nc1cc(Nc2nccc(-c3cn(C)c4ccccc34)n2)c(OC)cc1N(C)CCN(C)C + CCn1c(-c2cccnc2C(C)OC)c2c3cc(ccc31)N1CCOC(CC(NC(=O)C(C(C)C)N(C)C(=O)C3(F)CCN(C(=O)C#CC(C)(C)N(C)C)CC3)C(=O)N3CCCC(N3)C(=O)OCC(C)(C)C2)C1
3. CCN1CCN(Cc2ccc(Nc3ncc(F)c(-c4cc(F)c5nc(C)n(C(C)C)c5c4)n3)nc2)CC1 + CCn1c(-c2cc(N3CCN(C)CC3)cnc2C(C)OC)c2c3cc(ccc31)-c1csc(n1)CC(NC(=O)C1CC1C)C(=O)N1CCCC(N1)C(=O)OCC(C)(C)C2

Out:
79.2%
86.9%
18.9%

###

# System: 242566-281-R-J2-PDC complex spheroid viability
# Protocol description: Anticancer human tumor 242566-281-R-J2-PDC cell line growth inhibition [RAS]
# Applied conditions: second compound 0.000949 µM; first compound 0.000949 µM; hits give low values
Result type: viability, T/C (%)
Answers are plain numbers, in %.

Look over these answered cases.
[[record]]
compound = "CCc1c2c(nc3ccc(O)cc13)-c1cc3c(c(=O)n1C2)COC(=O)[C@]3(O)CC + CCn1c(-c2cccnc2C(C)OC)c2c3cc(ccc31)N1CCOC(CC(NC(=O)C(C(C)C)N(C)C(=O)C3(F)CCN(C(=O)C#CC(C)(C)N(C)C)CC3)C(=O)N3CCCC(N3)C(=O)OCC(C)(C)C2)C1"
assayed_target = "242566-281-R-J2-PDC complex spheroid viability"
observed_measurement = 101

[[record]]
compound = "CC1(C)CCC(Nc2ncc(C(F)(F)F)c(-c3c[nH]c4c(P(C)(C)=O)c(C#N)ccc34)n2)CN1 (centres undefined) + CCn1c(-c2cc(N3CCN(C)CC3)cnc2C(C)OC)c2c3cc(ccc31)-c1csc(n1)CC(NC(=O)C1CC1C)C(=O)N1CCCC(N1)C(=O)OCC(C)(C)C2"
assayed_target = "242566-281-R-J2-PDC complex spheroid viability"
observed_measurement = 101

[[record]]
compound = "CCc1c2c(nc3ccc(O)cc13)-c1cc3c(c(=O)n1C2)COC(=O)[C@]3(O)CC + CCn1c(-c2cc(N3CCN(C)CC3)cnc2C(C)OC)c2c3cc(ccc31)-c1csc(n1)CC(NC(=O)C1CC1C)C(=O)N1CCCC(N1)C(=O)OCC(C)(C)C2"
assayed_target = "242566-281-R-J2-PDC complex spheroid viability"
observed_measurement = 101


// next entry
In: GET viability, T/C where system = 242566-281-R-J2-PDC complex spheroid viability and item = CC1(C)CCC(Nc2ncc(C(F)(F)F)c(-c3c[nH]c4c(P(C)(C)=O)c(C#N)ccc34)n2)CN1 (centres undefined) + CCn1c(-c2cccnc2C(C)OC)c2c3cc(ccc31)N1CCOC(CC(NC(=O)C(C(C)C)N(C)C(=O)C3(F)CCN(C(=O)C#CC(C)(C)N(C)C)CC3)C(=O)N3CCCC(N3)C(=O)OCC(C)(C)C2)C1
Out: 114

###

# Tested on: 242566-281-R-J2-PDC complex spheroid viability
# Protocol description: Anticancer human tumor 242566-281-R-J2-PDC cell line growth inhibition [RAS];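 note: spheroids exposed to compound for 7 days before readout; 100% = DMSO vehicle control wells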
# Applied conditions: second compound 0.0949 µM; first compound 0.003 µM; hits give low values
Would you mind telling me the reported viability, T/C of each entry?
Numbers only, in %.

Give viability, T/C for each of the items listed below.
1. CCc1c2c(nc3ccc(O)cc13)-c1cc3c(c(=O)n1C2)COC(=O)[C@]3(O)CC + CCn1c(-c2cccnc2C(C)OC)c2c3cc(ccc31)N1CCOC(CC(NC(=O)C(C(C)C)N(C)C(=O)C3(F)CCN(C(=O)C#CC(C)(C)N(C)C)CC3)C(=O)N3CCCC(N3)C(=O)OCC(C)(C)C2)C1
2. CCc1c2c(nc3ccc(O)cc13)-c1cc3c(c(=O)n1C2)COC(=O)[C@]3(O)CC + CCn1c(-c2cc(N3CCN(C)CC3)cnc2C(C)OC)c2c3cc(ccc31)-c1csc(n1)CC(NC(=O)C1CC1C)C(=O)N1CCCC(N1)C(=O)OCC(C)(C)C2
3. CC1(C)CCC(Nc2ncc(C(F)(F)F)c(-c3c[nH]c4c(P(C)(C)=O)c(C#N)ccc34)n2)CN1 (centres undefined) + CCn1c(-c2cc(N3CCN(C)CC3)cnc2C(C)OC)c2c3cc(ccc31)-c1csc(n1)CC(NC(=O)C1CC1C)C(=O)N1CCCC(N1)C(=O)OCC(C)(C)C2
4. CC1(C)CCC(Nc2ncc(C(F)(F)F)c(-c3c[nH]c4c(P(C)(C)=O)c(C#N)ccc34)n2)CN1 (centres undefined) + CCn1c(-c2cccnc2C(C)OC)c2c3cc(ccc31)N1CCOC(CC(NC(=O)C(C(C)C)N(C)C(=O)C3(F)CCN(C(=O)C#CC(C)(C)N(C)C)CC3)C(=O)N3CCCC(N3)C(=O)OCC(C)(C)C2)C1

Out:
[77.8, 24.1, 24.8, 93.4]

###

# Test system: 242566-281-R-J2-PDC complex spheroid viability
# Protocol description: Anticancer human tumor 242566-281-R-J2-PDC cell line growth inhibition [RAS];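 note: spheroids exposed to compound for 7 days before readout; 100% = DMSO vehicle control wells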
# Applied conditions: second compound 0.0949 µM; first compound 1 µM; hits give low values
Result type: viability, T/C (%)
Answers are plain numbers, in %.

[[record]]
compound = "C=CC(=O)Nc1cc(Nc2nccc(-c3cn(C)c4ccccc34)n2)c(OC)cc1N(C)CCN(C)C + CCn1c(-c2cccnc2C(C)OC)c2c3cc(ccc31)N1CCOC(CC(NC(=O)C(C(C)C)N(C)C(=O)C3(F)CCN(C(=O)C#CC(C)(C)N(C)C)CC3)C(=O)N3CCCC(N3)C(=O)OCC(C)(C)C2)C1"
observed_measurement = 49.5


Attention now turns to another entry.
In: Output viability, T/C of O=C(c1ccc(F)c(F)c1Nc1ccc(I)cc1F)N1CC(O)([C@@H]2CCCCN2)C1 + CCn1c(-c2cc(N3CCN(C)CC3)cnc2C(C)OC)c2c3cc(ccc31)-c1csc(n1)CC(NC(=O)C1CC1C)C(=O)N1CCCC(N1)C(=O)OCC(C)(C)C2
Out: 12.3

###

# Tested on: 242566-281-R-J2-PDC complex spheroid viability
# Protocol description: Anticancer human tumor 242566-281-R-J2-PDC cell line growth inhibition [RAS];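 note: spheroids exposed to compound for 7 days before readout; 100% = DMSO vehicle control wells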
# Applied conditions: second compound 0.3 µM; first compound 0.00316 µM; hits give low values
Assign viability, T/C to each entry below.
Answers are plain numbers, in %.

[[record]]
compound = "CCN1CCN(Cc2ccc(Nc3ncc(F)c(-c4cc(F)c5nc(C)n(C(C)C)c5c4)n3)nc2)CC1 + CCn1c(-c2cc(N3CCN(C)CC3)cnc2C(C)OC)c2c3cc(ccc31)-c1csc(n1)CC(NC(=O)C1CC1C)C(=O)N1CCCC(N1)C(=O)OCC(C)(C)C2"
assayed_target = "242566-281-R-J2-PDC complex spheroid viability"
observed_measurement = 19.2


Now for the compound whose viability, T/C we want.
In: Provide measured viability, T/C value, entry: CC(C)n1nc(-c2ccc3oc(N)nc3c2)c2c(N)ncnc21 + CCn1c(-c2cccnc2C(C)OC)c2c3cc(ccc31)N1CCOC(CC(NC(=O)C(C(C)C)N(C)C(=O)C3(F)CCN(C(=O)C#CC(C)(C)N(C)C)CC3)C(=O)N3CCCC(N3)C(=O)OCC(C)(C)C2)C1
Out: 70.5

###

For each entry below, report its viability, T/C value.
# Tested on: 242566-281-R-J2-PDC complex spheroid viability
# Protocol description: Anticancer human tumor 242566-281-R-J2-PDC cell line growth inhibition [RAS];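 note: spheroids exposed to compound for 7 days before readout; 100% = DMSO vehicle control wells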
# Applied conditions: second compound 0.0316 µM; first compound 0.1 µM; hits give low values
One number for each entry, in %.

[[record]]
compound = "C[C@@H](NC(=O)c1ncnc(N)c1Cl)c1ncc(C(=O)Nc2cc(C(F)(F)F)c(Cl)cn2)s1 + C#Cc1c(F)ccc2cc(O)cc(-c3ncc4c(N5CC6CCC(C5)N6)nc(OCC56CCCN5CC(F)C6)nc4c3F)c12"
observed_measurement = 136


Parameters: items (list). Returns: viability, T/C for each item.
1. CC1(O)CCCC1n1c(=O)c(C(F)F)cc2cnc(NC3CCN(S(C)(=O)=O)CC3)nc21 (stereo not given) + C=CC(=O)N1CCN(c2nc(OCC3CCCN3C)nc3c(F)c(-c4nc(N)cc(C)c4C(F)(F)F)c(Cl)cc23)C(C)C1
2. CC(C)n1nc(-c2ccc3oc(N)nc3c2)c2c(N)ncnc21 + C#Cc1c(F)ccc2cc(O)cc(-c3ncc4c(N5CC6CCC(C5)N6)nc(OCC56CCCN5CC(F)C6)nc4c3F)c12
3. O=C(c1ccc(F)c(F)c1Nc1ccc(I)cc1F)N1CC(O)([C@@H]2CCCCN2)C1 + C=CC(=O)N1CCN(c2nc(OCC3CCCN3C)nc3c(F)c(-c4nc(N)cc(C)c4C(F)(F)F)c(Cl)cc23)C(C)C1

Out:
106
49.3
74.6

In: Given CC(Nc1ccc2c(c1)OCCn1cc(N3C(=O)OCC3C(F)F)nc1-2)C(N)=O (stereo not given) + C#Cc1c(F)ccc2cc(O)cc(-c3ncc4c(N5CC6CCC(C5)N6)nc(OCC56CCCN5CC(F)C6)nc4c3F)c12 , respond with its viability, T/C.
Out: 82.8
